# TARGET: Phosphatidylinositol 4,5-bisphosphate 3-kinase catalytic subunit alpha isoform (Homo sapiens) (UniProt P42336);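 note: values are mean inhibition figures from the GSK PKIS kinase panel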
# Sequence (P42336 whole entry, canonical isoform): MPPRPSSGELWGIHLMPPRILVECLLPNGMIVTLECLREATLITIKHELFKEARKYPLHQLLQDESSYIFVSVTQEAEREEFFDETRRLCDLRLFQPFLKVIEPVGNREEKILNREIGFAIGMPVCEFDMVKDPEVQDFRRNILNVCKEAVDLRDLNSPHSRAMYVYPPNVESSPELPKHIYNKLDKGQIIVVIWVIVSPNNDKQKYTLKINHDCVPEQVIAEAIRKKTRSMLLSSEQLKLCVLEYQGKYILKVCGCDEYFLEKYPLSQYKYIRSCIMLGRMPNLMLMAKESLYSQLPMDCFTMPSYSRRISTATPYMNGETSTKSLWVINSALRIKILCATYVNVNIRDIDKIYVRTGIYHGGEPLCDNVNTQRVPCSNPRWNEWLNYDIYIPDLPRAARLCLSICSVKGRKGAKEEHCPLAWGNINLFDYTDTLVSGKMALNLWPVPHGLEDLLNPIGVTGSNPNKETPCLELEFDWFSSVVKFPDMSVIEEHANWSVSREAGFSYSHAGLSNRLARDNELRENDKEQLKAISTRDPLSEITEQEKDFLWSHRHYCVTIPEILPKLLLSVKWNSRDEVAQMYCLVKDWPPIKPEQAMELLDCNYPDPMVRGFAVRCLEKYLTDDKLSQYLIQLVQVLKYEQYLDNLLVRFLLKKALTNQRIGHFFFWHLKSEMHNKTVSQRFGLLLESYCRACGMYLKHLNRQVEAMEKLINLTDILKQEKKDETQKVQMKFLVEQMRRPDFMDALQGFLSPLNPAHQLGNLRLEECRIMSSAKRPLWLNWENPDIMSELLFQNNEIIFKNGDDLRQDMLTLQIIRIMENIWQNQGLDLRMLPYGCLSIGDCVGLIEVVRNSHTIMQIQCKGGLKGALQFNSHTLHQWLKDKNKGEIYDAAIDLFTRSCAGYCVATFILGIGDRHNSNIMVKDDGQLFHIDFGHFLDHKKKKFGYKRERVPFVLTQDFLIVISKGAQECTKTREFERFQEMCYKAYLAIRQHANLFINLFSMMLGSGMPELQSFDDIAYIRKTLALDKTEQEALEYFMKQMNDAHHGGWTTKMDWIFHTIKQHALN
# MEASUREMENT_PARAMETERS: at 0.1 µM
Reported inhibition values for the following compounds.
Number in %, nothing else.

# count of solved cases: 5
COMPOUND	UNITS_SYMBOL	inhibition
N#Cc1cccc(Nc2nccc(-c3cnn4ncccc34)n2)c1	%	6.65
COc1cccc(-n2ncc3c(N/N=C/c4ccc(C)cc4)ncnc32)c1	%	5.44
O=C1Nc2ccccc2/C1=C/Nc1ccc2[nH]c(=O)[nH]c2c1	%	4.42
CN(C)c1cc2c(Nc3ccc4c(cnn4Cc4ccccc4)c3)ncnc2cn1	%	1.32
O=S(=O)(CCOCc1ccc(-c2ccc3ncnc(Nc4ccc(OCc5cccc(F)c5)c(Cl)c4)c3c2)o1)c1ccccc1	%	1.05

Could you share which inhibition value was measured for Cc1cc(-c2ccccn2)cc(C)c1/C=C/c1cncc(-c2nn[nH]n2)c1 ?
3.8

Any idea what inhibition was measured for CS(=O)(=O)Nc1cccc(-c2ccc3c(NC(=O)C4CC4)n[nH]c3c2)c1 ?
-0.25

Requested read-out: inhibition. Entry: Cc1ccc2c(c1)/C(=N/Nc1ccc(S(N)(=O)=O)cc1)C(=O)N2
-1.13

Tell me the measured inhibition of CCCN1CCCC(c2ccc(Nc3nc(Nc4cc(F)ccc4C(N)=O)c4cc[nH]c4n3)c(OC)c2)C1 (stereo not given) , please.
2.9

Requested read-out: inhibition. Entry: Cc1nc(-c2ccccc2)n2nc(NCCCN3CCOCC3)ncc12
1.91
